System: NCI-H522 lung
test.method.notes: NCI tumour cell line growth inhibition, 48 h
Entries annotated with measured TGI
observation.type: TGI

compound="COC(=O)C1=NC(=S)NC(c2ccccc2)C1c1nc2ccccc2o1 (stereo unspecified)" study_system="NCI-H522 lung" val="> 50 µM"
compound=O=C1Cc2cc3ccccc3nc2-c2ccccc2N1 study_system="NCI-H522 lung" val="> 100 µM"
compound=CC1=NN(c2nc(N)nc(CO)n2)C(C)(C)C1 study_system="NCI-H522 lung" val="> 100 µM"
compound="CC(=O)OC1CCn2c1nc1cc([N+](=O)[O-])c(C)cc12 (stereo unspecified)" study_system="NCI-H522 lung" val="> 100 µM"
compound=N=C(N)c1ccc2oc3ccc(C(=N)N)cc3c(=O)c2c1 study_system="NCI-H522 lung" val="> 100 µM"
compound=C/C(=C\C(=O)Nc1ccc2n[nH]nc2c1)Nc1ccc2n[nH]nc2c1 study_system="NCI-H522 lung" val="> 100 µM"
compound=COC(=O)CN1CCN(c2cccc3c2CCCC3)CC1 study_system="NCI-H522 lung" val="> 100 µM"
compound=CN(C(=O)Cc1ccccc1)n1cn[n+](CC(=O)OC(C)(C)C)c1 study_system="NCI-H522 lung" val="> 10 µM"
compound="NC(Cc1ccccc1)C(=O)OCN1C(=O)C2C3C=CC(C2C1=O)C1C(=O)N(COC(=O)C(N)Cc2ccccc2)C(=O)C31 (stereo unspecified)" study_system="NCI-H522 lung" val="> 100 µM"
compound=CC1(C)N=C(C(N)=O)c2[nH]cnc2N1 study_system="NCI-H522 lung" val="> 100 µM"
compound=NC1=Nc2cc(C(F)(F)F)ccc2Sc2nc3ccccc3n21 study_system="NCI-H522 lung" val="> 71.1 µM"
compound=O=c1c(I)c[nH]cc1I study_system="NCI-H522 lung" val="> 100 µM"
compound=CNC(=O)[C@H](Cc1ccccc1)NC(=O)N(CCC#N)CCN(C(=O)N[C@@H](Cc1ccccc1)C(=O)OC)c1ccccc1 study_system="NCI-H522 lung" val="> 100 µM"
compound="COC(=O)C(=O)C(C(=O)C(=O)Nc1ccc([N+](=O)[O-])cc1)c1nc2ccccc2[nH]c1=O (stereo unspecified)" study_system="NCI-H522 lung" val="> 100 µM"
compound=O=P(CN1CCOCC1)(c1ccccc1)c1ccccc1 study_system="NCI-H522 lung" val="> 100 µM"
compound="O=c1[nH]c2cc(Cl)ccc2nc1/C(=N\\Nc1ccccc1)C(O)c1ccc2c(c1)OCO2 (stereo unspecified)" study_system="NCI-H522 lung" val="> 100 µM"
compound="COC(=O)c1ccccc1C1CN=NC12Cc1ccc(C)cc1C2=O (stereo unspecified)" study_system="NCI-H522 lung" val="> 100 µM"
compound=CC(=O)N[C@@H](Cc1ccc(O)cn1)C(=O)NCc1ccc(Cl)cc1 study_system="NCI-H522 lung" val="> 100 µM"
compound=C[N+](C)(CCNc1ccc(NCC[N+](C)(C)Cc2ccc([N+](=O)[O-])cc2)c2c1C(=O)c1c(O)ccc(O)c1C2=O)Cc1ccc([N+](=O)[O-])cc1 study_system="NCI-H522 lung" val="> 50 µM"
compound="CCOc1ccc(C2=NN(CC)C(=O)C(C3C(=O)N(c4ccccc4)N=C3C)C2)cc1 (stereo unspecified)" study_system="NCI-H522 lung" val="> 100 µM"
compound=Brc1ccc2[nH]c3c(C4=NCCC4)nccc3c2c1 study_system="NCI-H522 lung" val="> 100 µM"
